assaySystem: T1, full-length Zaire GP (GPFL) (Ebola (Zaire) virus (EBOV), UniProt Q05320 33-632)
T1 construct: also called Zaire GPFL; GP(Z)FL
T1 sequence: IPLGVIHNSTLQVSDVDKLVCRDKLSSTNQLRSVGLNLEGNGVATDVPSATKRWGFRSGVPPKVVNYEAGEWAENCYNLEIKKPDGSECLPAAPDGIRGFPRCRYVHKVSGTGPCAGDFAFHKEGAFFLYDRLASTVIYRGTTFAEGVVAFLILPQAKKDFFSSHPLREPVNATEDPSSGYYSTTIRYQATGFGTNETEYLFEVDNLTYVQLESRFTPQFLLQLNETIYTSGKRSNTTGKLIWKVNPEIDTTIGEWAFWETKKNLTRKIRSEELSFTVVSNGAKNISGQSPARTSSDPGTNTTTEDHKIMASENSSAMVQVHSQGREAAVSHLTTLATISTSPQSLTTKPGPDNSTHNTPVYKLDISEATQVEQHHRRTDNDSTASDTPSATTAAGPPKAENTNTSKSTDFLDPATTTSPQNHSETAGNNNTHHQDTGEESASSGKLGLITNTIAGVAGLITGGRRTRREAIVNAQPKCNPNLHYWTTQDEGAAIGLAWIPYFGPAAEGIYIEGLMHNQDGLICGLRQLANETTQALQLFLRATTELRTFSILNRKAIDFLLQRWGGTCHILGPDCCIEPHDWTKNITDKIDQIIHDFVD
testName: ELISA on coated GP
Cut-off 0.02 µg/mL on EC50: below means yes, at or above means no.

Record excerpt, results attached:
binder	category
antibody 310L (antibody, V domains shown) VH: EMQLVESGGGLVQPGGSLRLSCAASGFTFDAYAMHWVRQRPGKGLEWISGIIWSGRTTYYADSVKGRFTFSRDNSKNSLYLEMNSLKPEDTALYYCAKDSWNYGVYNSLDVWGRGILVTVSS VL: QSVLTQPPSVSGAPGQRVTISCTGSSSNVGPHYVSWYQHLPGTTPKLLIFQDNKRPSGVSDRFSGSKSASSASLTITGLQTEDEADYYCLSYDSSLNVYIFGSGTRLTVL	yes
antibody 315L (antibody, V domains shown) VH: QVQLQESGPGLVKPSETLSLTCTVSGGSITGNYWTWVRQPPGKGLQYIGRFDAGGKTYYNPPLKSRVSILGDKSKNQVSLNLTSVTVADTGVYYCAREQWGQLLSGSFDVWGRGVLVTVSS VL: SYELTQPPSVSVSPGQTARITCSGDALPDYYAHWYQQKSGQAPMLVIYKDTERPSGIPERFSGSSSGTTVSLTISGVQAEDEADYYCQSGDSSGNHWVFGGGTRLTVL	no
antibody 314L (antibody, V domains shown) VH: EERLVESGGGLVQPGGSLRLSCAASGFTFGDYAMHWVRQVPGKSLEWLSGISWSGYTTYSADSVKGRFTISRDNAKNSLYLQMNRLRPEDTGLYYCVTLIGAIGIKDSLDVWGRGVLVTVSS VL: EVVFTQPHSVSGSPGQMVTISCTRSSGTIDNSYVYWHQQRPGSAPTTVIYNDDQRPSGVPDRFSGSIDSSSNSASLTISGLKSEDEADYYCQSYDSSGWVFGGGTRLTVL	no

Q) Could you please tell me whether EC50 recorded for antibody 232L (antibody, V domains shown) VH: KSQLVESGGGLVQPGGSLRLSCAASGFTFDAYAMHWVRQAPGEGLEWVTAISWSGSSTYYADSVKGRFTFSRDNAKNSLYLEMNSLRADDTAFYYCVKGGVYNWFDVWGPGVLVTVSS VL: QSVLTQPPSVSGAPGQRVTISCTGSRSNIGGYYVSWYQQFPGTTPKLLIYQDNKRPSGVSDRFSGSKSGTSASLTITGLQTEDEADYYCLSYDSSLNGWVFGGGTRLTVL is less than 0.02 µg/mL?
A) no
